Test system: Escherichia coli
ASSAY_NOTES: Antibacterial activity against Escherichia coli UTI89 assessed as number of wells with agglutination by hemagglutinination assay
Format: functional
Quick list: Activity per entry.
Reply briefly: the number, and no unit.

O=C(O)c1c(-c2ccsc2)sc2c(C3CC3)c(Cc3cccc4ccccc34)cc(=O)n12 : 3.5
Cc1cccc(-c2sc3c(C4CC4)c(Cc4cccc5ccccc45)cc(=O)n3c2C(=O)O)c1 : 3
O=C(O)c1c(-c2ccccc2)sc2c(C3CC3)c(Cc3cccc4ccccc34)cc(=O)n12 : 4.5

Kindly consider the entry below.
Entry O=C(O)c1c(Cc2ccccc2)sc2c(C3CC3)c(Cc3cccc4ccccc34)cc(=O)n12 needs its Activity filled in; supply it.
3

Ref: ChEMBL document CHEMBL1212817
